System: NCI-H522 lung
Assay: NCI-60 one-dose screen, 48 h (100 = growth as untreated, 0 = no growth, -100 = all killed)
Conditions: 10 µM
This is part of a sample that, as a whole, favours compounds with a hit. Of some 83,000 tested, about 20% had one in any assay.
EXPERIMENTAL ENDPOINT: growth (%)
Just the number in %, nothing appended.

Recorded growth, per entry:
1. COc1cc(-c2ccc(NC(=O)NC3CC3)c(OC)c2)ccc1NC(=O)NC1CC1 | -10.3
2. O=[N+]([O-])c1ccc(CO)cc1 | 104
3. COc1ccc(C(O)c2ccccc2)cc1 (configuration not stated) | 94.8
4. O=C1N(C[P+](c2ccccc2)(c2ccccc2)c2ccccc2)CCCN1C[P+](c1ccccc1)(c1ccccc1)c1ccccc1 | 108
5. CCOC(=O)c1[nH]c(C)c(C(C)=O)c1C | 83.8
6. CCOc1ccccc1/C=N/Nc1nc2ccccc2o1 | 110

Qu. // query growth value for entry `COc1ccc(-c2cc3c(nn2)-c2ccccc2C3=O)cc1`
Ans. 26.4

---

System: SK-OV-3 ovarian
Test: NCI-60 one-dose screen, 48 h (100 = growth as untreated, 0 = no growth, -100 = all killed)
Details: 10 µM
Compounds without any hit were thinned out: in the full panel of roughly 83,000, 20% have a hit.
EXPERIMENTAL ENDPOINT: growth (%)
Just the number in %, nothing appended.

Recorded growth, per entry:
1) O=c1[nH][nH]c(=O)c2cc([N+](=O)[O-])ccc12 | 101
2) CC(C)COC(=O)COC(=O)OCCOCCOC(=O)OCC(=O)OCC(C)C | 100
3) CC(=O)Nc1c(C)cc(C)cc1C | 113

Qu. // query growth value for entry `C=CCOC(=O)C(=O)OCC=C`
Ans. 105

Qu. Query O=C(O)CCC(=O)OC(C1CO1)C(OC(=O)CCC(=O)O)C1CO1 (stereo not drawn) next
Ans. 96.8

Qu. Query `COc1cc([C@@H]2c3cc4c(cc3[C@H](O)[C@H]3COC(=O)[C@H]23)OCO4)cc(OC)c1OC` next
Ans. 24.4

---

Test system: NCI-H322M lung
Experiment: NCI-60 one-dose screen, 48 h (100 = growth as untreated, 0 = no growth, -100 = all killed)
Details: 10 µM
Method: Growth inhibition of the NCI-H322M human Non-Small Cell Lung tumor cell line is measured as a screen for anti-cancer activity. Cells are grown in 96 well plates and exposed to the test compound for 48 hours. Compounds are tested at a single concentration, which is 10^-5 M for most compounds. The reported endpoint is percent growth (GI% or GIPRCNT), where numbers from 0 - 100% represent growth inhibition, and numbers from -100% - 0 represent cell death. […]
This is part of a sample that, as a whole, favours compounds with a hit. Of some 83,000 tested, about 20% had one in any assay.
EXPERIMENTAL ENDPOINT: growth (%)
Just the number in %, nothing appended.

Qu. // query growth value for entry `CN(C)/N=C/c1ccccc1O`
Ans. 89.7

---

System: U251 CNS
Test: NCI-60 one-dose screen, 48 h (100 = growth as untreated, 0 = no growth, -100 = all killed)
Settings: 10 µM
The panel holds about 83,000 compounds, 20% with a hit somewhere; the sample as a whole holds those more often.
EXPERIMENTAL ENDPOINT: growth (%)
Just the number in %, nothing appended.

Recorded growth, per entry:
1) C=CCNc1ccccc1 | 106
2) O=C(O)c1ccnc(Br)c1 | 100
3) CCOC(=O)/C(C#N)=C/c1cccc(C)c1 | 98.2
4) NCC(=O)CCC(=O)O | 96.7
5) CCN(CC)c1ccc2nc3ccc(=[N+](CC)CC)cc-3oc2c1 | -13.9

Qu. Recall the recorded growth for Cc1ccccc1C1N=C2Oc3ccccc3C=C2C(=O)N1 (stereo unspecified) with U251 CNS and state it.
Ans. 63.8

---

Tested on: SF-539 CNS
Assay: NCI-60 one-dose screen, 48 h (100 = growth as untreated, 0 = no growth, -100 = all killed)
Settings: 10 µM
The panel holds about 83,000 compounds, 20% with a hit somewhere; the sample as a whole holds those more often.
EXPERIMENTAL ENDPOINT: growth (%)
Just the number in %, nothing appended.

Recorded growth, per entry:
1. CN(C)Cc1cc(C(C)(C)CC(C)(C)C)ccc1O | 90.8
2. CCc1nn(Cc2ccccc2)c2nc(C)c(CCc3ccccc3)c(Cl)c12 | 86.7
3. CCOC(=O)c1[nH]c(C)c(C(C)=O)c1C | 92.6
4. c1ncc2[nH]cnc2n1 | 98.3
5. O=C1c2ccccc2C(=O)c2c1ccc(C(=O)O)c2[N+](=O)[O-] | 96
6. CC(C)CCOC(=O)c1ccccc1 | 98.8

# next compound below
Qu. // query growth value for entry COc1ccc(C(O)c2ccccc2)cc1 (configuration not stated)
Ans. 102

---

In this section we review reported growth values for a set of compounds.
Tested on: HCC-2998 colon
Experiment: NCI-60 one-dose screen, 48 h (100 = growth as untreated, 0 = no growth, -100 = all killed)
Conditions: 10 µM
About 83,000 compounds went through this panel and 20% of them were active in at least one assay; those are over-represented in the sample as a whole.
Just the number in %, nothing appended.

Recorded growth, per entry:
1. c1ccc2c(N3CCCCC3)ncnc2c1 | 81.1
2. CCCCC(=O)c1ccc(OC)cc1 | 116
3. COC(=O)c1cccnc1 | 104

Qu. // query growth value for entry Cc1cc(C(O)(c2ccc(Nc3ccccc3)cc2)c2ccc(Nc3ccc(S(=O)(=O)O)cc3)cc2)ccc1N (centres undefined)
Ans. -20.5

Qu. Query `CSc1[nH]c(=O)ncc1F` next
Ans. 96.8

Qu. Query `N#CCCN(CCCN1CCOCC1)CN1C(=O)c2ccccc2C1=O` next
Ans. 101

Qu. Query `Cc1cc(C)c(N)c(S(=O)(=O)O)c1` next
Ans. 91.2

Qu. Query `c1cc2cccc3c4cccc5cccc(c(c1)c23)c54` next
Ans. 96.7

---

Tested on: DU-145 prostate
Experiment: NCI-60 one-dose screen, 48 h
Settings: 10 µM
The panel holds about 83,000 compounds, 20% with a hit somewhere; the sample as a whole holds those more often. Activity calls are given as the source filed them. The calls were made as follows: active = growth percent below 10; inactive = the rest.
Returns: one label drawn from true (1) (active), false (0) (inactive)

# count of solved cases: 4
1) COC(=O)c1ccccc1Br | false (0)
2) CN(C)Cc1cc(C(C)(C)CC(C)(C)C)ccc1O | false (0)
3) O=C(Cc1ccc(OCc2ccccc2)cc1)NCc1ccc2c(c1)OCO2 | false (0)
4) Cc1c(O)cnc2nn(-c3ccccc3)c(=N)n12 | false (0)

Qu. GET /call?item= `C[C@@H](c1ccccc1)[C@@H](C(=O)O)c1ccccc1` returns the recorded outcome of this test.
Ans. false (0)

Qu. Query `COc1cccc(COC(=O)Nc2ccccc2)c1OC` next
Ans. false (0)

Qu. Query `Nc1ccc(N)c([N+](=O)[O-])c1` next
Ans. false (0)

Qu. Query CCC(O)CC(CC)CO (configuration not stated) next
Ans. false (0)

---

In this section we review reported growth values for a set of compounds.
Test system: PC-3 prostate
Test: NCI-60 one-dose screen, 48 h (100 = growth as untreated, 0 = no growth, -100 = all killed)
Conditions: 10 µM
This is part of a sample that, as a whole, favours compounds with a hit. Of some 83,000 tested, about 20% had one in any assay.
Just the number in %, nothing appended.

Recorded growth, per entry:
1. COC(=O)c1cccc(Br)c1 | 86.4
2. CCC(C)(O)c1ccc(C)cc1 (stereo not drawn) | 99.6
3. COCCCNC(=O)c1nnn2c1nc(N)c1cc(Cl)ccc12 | 80.6
4. CC(C)=NNC(N)=S | 77.9
5. CCNCCCCNCCCCNCCCCNCCCCNCC | 84.6
6. COc1ccc(-c2cc(-c3cc(-c4ccc(OC)cc4)nc(N)n3)nc(N)n2)cc1 | 96.5
7. CCc1nc(N)nc(N)c1-c1ccc(Cl)cc1 | 60.5
8. CN(C)c1ccc2nc3ccc(=N)cc-3sc2c1 | 12.3

Qu. // query growth value for entry COc1cc(C2NC(=O)C(C#N)=C(Nc3cccc(C)c3)S2)ccc1O (stereo not drawn)
Ans. 97.6

Qu. Query `Cc1cc(C)c(CC(=O)O)c(C)c1` next
Ans. 103

---

In this section we review reported growth values for a set of compounds.
Test system: MALME-3M melanoma
Test: NCI-60 one-dose screen, 48 h (100 = growth as untreated, 0 = no growth, -100 = all killed)
Details: 10 µM
The panel holds about 83,000 compounds, 20% with a hit somewhere; the sample as a whole holds those more often. Active and inactive are the calls of the source. The calls were made as follows: active = growth percent below 10; inactive = the rest.

Recorded growth, per entry:
1) Cc1cc(N)ccc1-c1ccc(N)cc1C | 120% (inactive)
2) COC(=O)c1ccc(C(C)C)cc1 | 99.9% (inactive)
3) COc1cc2cc(OC(C)=O)c3cc4c(cc3c2c(OC)c1OC)OCO4 | 98.4% (inactive)
4) Cc1ccc(/C=C2\SC(=S)N(c3ccc(F)cc3)C2=O)o1 | 77% (inactive)
5) CN(C)/N=C/c1ccccc1O | 109% (inactive)
6) NC(=S)CN1CCOCC1 | 110% (inactive)
7) COc1ccc(Oc2c(I)cc(CC(NC(C)=O)C(=O)O)cc2I)cc1 (configuration not stated) | 88.4% (inactive)
8) NCC(=O)CCC(=O)O | 101% (inactive)

Qu. // query growth value for entry c1cc[n+](C2c3ccccc3C([n+]3ccccc3)c3ccccc32)cc1 (configuration not stated)
Ans. 53.1% (inactive)

Qu. Query `NC(=O)c1ccc(N=C(N)N=C(N)N)cc1` next
Ans. 93.1% (inactive)

Qu. Query `Cc1cc(O)ccc1O` next
Ans. 101% (inactive)

Qu. Query `C#CCSc1nnnn1-c1ccc(Br)c(C)c1` next
Ans. 112% (inactive)

Qu. Query `C/C(=N\O)C1(O)CCCCC1` next
Ans. 114% (inactive)

Qu. Query `Cc1cc(NC(=O)CSCC(=O)O)no1` next
Ans. 96.8% (inactive)
